I'd appreciate it if you could supply Ki values for the items below.
# Target Or Test System: TAAR1 (Mus musculus)
# Construct: expressed in transfected cells; host or cells: HEK293 cells (ATCC #CRL-1573), stably transfected with pIRESneo2 expression plasmid; membrane preparation
# Procedure Summary: Radioligand binding assay on membranes of HEK293 cells stably expressing TAAR1
# Experimental Parameters: Ki value (μM) in mouse, radioligand [3H]-rac-2-(1,2,3,4-tetrahydro-1-naphthyl)-2-imidazoline 60 nM, 4° C., 30 min

Inquiry: Would you mind telling me what Ki value was observed for O=C(Nc1cccc(Cl)c1)c1ccc(N2CCCC2)c(C(F)(F)F)c1 ?
Reply text: 0.02 µM

Inquiry: Repeat for the following molecule: CC1CCN(c2ncc(C(=O)Nc3cccc(Cl)c3)cc2Cl)CC1
Reply text: 0.023 µM

Inquiry: Repeat for the following molecule: CC(C)c1cccc(NC(=O)c2ccc(N3CCCC3)c(C(F)(F)F)c2)c1
Reply text: 0.065 µM

Inquiry: Repeat for the following molecule: CCCCNc1ccc(C(=O)Nc2cccc(OC)c2)cc1C(F)(F)F
Reply text: 0.01 µM

Inquiry: Repeat for the following molecule: COc1cccc(NC(=O)c2cnc(NCc3ccccc3)c(C(F)(F)F)c2)c1
Reply text: 0.0056 µM

Inquiry: Repeat for the following molecule: CCCNc1ncc(C(=O)Nc2cccc(Cl)c2)cc1Cl
Reply text: 0.011 µM

Inquiry: Repeat for the following molecule: COc1cccc(NC(=O)c2cnc(NC(C)C)c(C(F)(F)F)c2)c1
Reply text: 0.0597 µM

Inquiry: Repeat for the following molecule: COc1cccc(NC(=O)c2cnc(N3CCCCC3)c(Cl)c2)c1
Reply text: 0.0207 µM

Inquiry: Repeat for the following molecule: O=C(Nc1cccc(Cl)c1)c1cnc(N2CCC2)c(Cl)c1
Reply text: 0.042 µM

* * *

# Target Or Test System: TAAR1 (Mus musculus, UniProt Q923Y8)
# Construct: expressed in transfected cells; host or cells: HEK293 cells (ATCC #CRL-1573), stably transfected with pIRESneo2 expression plasmid; membrane preparation
# Sequence (Q923Y8 whole entry): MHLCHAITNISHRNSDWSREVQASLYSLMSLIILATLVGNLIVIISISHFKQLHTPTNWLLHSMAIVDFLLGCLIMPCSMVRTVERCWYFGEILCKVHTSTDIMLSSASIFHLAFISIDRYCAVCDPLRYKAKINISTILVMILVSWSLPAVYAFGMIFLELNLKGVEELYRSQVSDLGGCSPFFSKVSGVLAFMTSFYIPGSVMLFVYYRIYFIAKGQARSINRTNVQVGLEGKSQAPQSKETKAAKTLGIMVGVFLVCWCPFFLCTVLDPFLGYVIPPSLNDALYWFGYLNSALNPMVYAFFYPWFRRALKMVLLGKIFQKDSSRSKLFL
# Procedure Summary: Radioligand binding assay on membranes of HEK293 cells stably expressing TAAR1
# Experimental Parameters: radioligand [3H]-rac-2-(1,2,3,4-tetrahydro-1-naphthyl)-2-imidazoline 60 nM, 4° C., 30 min, read-out: Ki value (μM) in mouse
I'd appreciate it if you could supply Ki values for the items below.
Please state the figure in µM; there is no need to write the unit.

Inquiry: Would you mind telling me what Ki value was observed for CCNc1ccc(C(=O)Nc2cccc(OC)c2)cc1C(F)(F)F ?
Reply text: 0.022

Inquiry: Repeat for the following molecule: O=C(Nc1ccccc1)c1ccc([N+](=O)[O-])c(C(F)(F)F)c1 [Example 219]
Reply text: 0.067

Inquiry: Repeat for the following molecule: O=C(Nc1ccccc1)c1ccc(Cl)c(Cl)c1 [Example 217, 3,4-Dichloro-N-phenyl-benzamide]
Reply text: 0.054

Inquiry: Repeat for the following molecule: COc1cccc(NC(=O)c2ccc(NCc3ccccc3)c(C(F)(F)F)c2)c1
Reply text: 0.005

Inquiry: Repeat for the following molecule: CNc1ncc(C(=O)Nc2cccc(Cl)c2)cc1Cl
Reply text: 0.096

Inquiry: Repeat for the following molecule: COc1cccc(NC(=O)c2ccc(Cl)c(C(F)(F)F)c2)c1
Reply text: 0.0058

Inquiry: Repeat for the following molecule: COc1cccc(NC(=O)c2ccc(N3CCCCCC3)c(C(F)(F)F)c2)c1
Reply text: 0.011

Inquiry: Repeat for the following molecule: COc1cccc(NC(=O)c2cnc(N3CCC(C)CC3)c(C(F)(F)F)c2)c1
Reply text: 0.0017

Inquiry: Repeat for the following molecule: Cc1cnc(C)n1Cc1cccc(NC(=O)c2ccc(Cl)c(Cl)c2)c1
Reply text: 0.049

* * *

# Target Or Test System: TAAR1 (Mus musculus)
# Construct: expressed in transfected cells; host or cells: HEK293 cells (ATCC #CRL-1573), stably transfected with pIRESneo2 expression plasmid; membrane preparation
# Procedure Summary: Radioligand binding assay on membranes of HEK293 cells stably expressing TAAR1
# Experimental Parameters: Ki value (μM) in mouse, radioligand [3H]-rac-2-(1,2,3,4-tetrahydro-1-naphthyl)-2-imidazoline 60 nM, 4° C., 30 min
# Experimental: The Expand High Fidelity PCR System (Roche Diagnostics) was used with 1.5 mM Mg^2+ and purified PCR products were cloned into pCR2.1-TOPO cloning vector (Invitrogen) following the instructions of the manufacturer. […] Cells at confluence were rinsed with ice-cold phosphate buffered saline without Ca^2+ and Mg^2+ containing 10 mM EDTA and pelleted by centrifugation at 1000 rpm for 5 min at 4° C. […] Protein concentration was determined by the method of Pierce (Rockford, Ill.). […]
I'd appreciate it if you could supply Ki values for the items below.
Please state the figure in µM; there is no need to write the unit.

Inquiry: Would you mind telling me what Ki value was observed for CCCCNc1ncc(C(=O)Nc2cccc(Cl)c2)cc1Cl ?
Reply text: 0.008

Inquiry: Repeat for the following compound: COc1cccc(NC(=O)c2ccc(N3CCOCC3)c(C(F)(F)F)c2)c1
Reply text: 0.086

Inquiry: Repeat for the following compound: CCCCNc1ncc(C(=O)Nc2cccc(OC)c2)cc1Cl
Reply text: 0.0463

Inquiry: Repeat for the following compound: COc1cccc(NC(=O)c2cccc(S(=O)(=O)N3CCCCCC3)c2)c1
Reply text: 0.024

* * *

# Target Or Test System: TAAR1 (Mus musculus, UniProt Q923Y8)
# Construct: expressed in transfected cells; host or cells: HEK293 cells (ATCC #CRL-1573), stably transfected with pIRESneo2 expression plasmid; membrane preparation
# Procedure Summary: Radioligand binding assay on membranes of HEK293 cells stably expressing TAAR1
# Experimental Parameters: radioligand [3H]-rac-2-(1,2,3,4-tetrahydro-1-naphthyl)-2-imidazoline 60 nM, 4° C., 30 min, read-out: Ki value (μM) in mouse
Could you please mark Y for values of Ki below 0.02 µM and N for values at or above it?

Inquiry: For CC(=O)c1cccc(NC(=O)c2ccc(N3CCCC3)c(C(F)(F)F)c2)c1 , is the recorded Ki below the cut-off of 0.02 µM?
Reply text: N

Inquiry: Repeat for the following compound: COc1cccc(NC(=O)c2ccc(N3CCCC3)c([N+](=O)[O-])c2)c1
Reply text: Y

Inquiry: Repeat for the following compound: O=C(Nc1cccc(Cl)c1)c1ccc(Cl)c(Cl)c1 [Example 283]
Reply text: N

Inquiry: Repeat for the following compound: COc1cccc(NC(=O)c2ccc(NCc3ccccc3)c([N+](=O)[O-])c2)c1
Reply text: Y

Inquiry: Repeat for the following compound: Cc1cccc(C(=O)Nc2ccc(Cl)c(Cl)c2)c1
Reply text: N

Inquiry: Repeat for the following compound: O=C(Nc1cccc(Cl)c1)c1cnc(N2CCCC2)c(Cl)c1
Reply text: Y

Inquiry: Repeat for the following compound: O=C(Nc1cccc(Cl)c1)c1ccc(Cl)c(Cl)c1 [Example 218, 3,3′,4-Trichlorobenzanilide]
Reply text: N

Inquiry: Repeat for the following compound: Cc1cccc(NC(=O)c2ccc(N3CCCC3)c(C(F)(F)F)c2)c1
Reply text: Y

Inquiry: Repeat for the following compound: COc1cccc(NC(=O)c2cnc(Cl)c(Cl)c2)c1
Reply text: N

Inquiry: Repeat for the following compound: CN1CCN(c2ncc(C(=O)Nc3cccc(Cl)c3)cc2Cl)CC1
Reply text: Y

Inquiry: Repeat for the following compound: COc1cccc(NC(=O)c2ccc(N3CCC3)c([N+](=O)[O-])c2)c1
Reply text: N

Inquiry: Repeat for the following compound: COc1cccc(NC(=O)c2ccc(F)c(S(=O)(=O)N3CC(C)CC(C)C3)c2)c1 (racemic)
Reply text: Y

Inquiry: Repeat for the following compound: COc1cccc(NC(=O)c2ccc(N3CCCCC3)c(C(F)(F)F)c2)c1
Reply text: N

Inquiry: Repeat for the following compound: CCNc1ncc(C(=O)Nc2cccc(Cl)c2)cc1Cl
Reply text: N

Inquiry: Repeat for the following compound: COc1cccc(NC(=O)c2ccc(Nc3ccccc3)c([N+](=O)[O-])c2)c1
Reply text: N

Inquiry: Repeat for the following compound: COCCNc1ncc(C(=O)Nc2cccc(Cl)c2)cc1Cl
Reply text: N

Inquiry: Repeat for the following compound: O=C(Nc1ccccc1)c1ccc(Cl)c(Cl)c1 [Example 319, 3,4-Dichloro-N-phenyl-benzamide]
Reply text: N

Inquiry: Repeat for the following compound: COc1cccc(NC(=O)c2ccc(NC(C)C)c([N+](=O)[O-])c2)c1
Reply text: Y

Inquiry: Repeat for the following compound: COc1cccc(NC(=O)c2ccc(N3CCC3)c(C(F)(F)F)c2)c1
Reply text: Y

Inquiry: Repeat for the following compound: CCc1cccc(NC(=O)c2ccc(N3CCCC3)c(C(F)(F)F)c2)c1
Reply text: N

Inquiry: Repeat for the following compound: O=C(Nc1cccc(OC(F)F)c1)c1ccc(N2CCCC2)c(C(F)(F)F)c1
Reply text: Y

Inquiry: Repeat for the following compound: CCCNc1ccc(C(=O)Nc2cccc(OC)c2)cc1C(F)(F)F
Reply text: N

Inquiry: Repeat for the following compound: COCCNc1ccc(C(=O)Nc2cccc(OC)c2)cc1C(F)(F)F
Reply text: N

Inquiry: Repeat for the following compound: COc1cccc(NC(=O)c2ccc(N3CCC(C#N)CC3)c(C(F)(F)F)c2)c1
Reply text: N

Inquiry: Repeat for the following compound: O=C(Nc1cccc(Cl)c1)c1cnc(Cl)c(Cl)c1
Reply text: N

Inquiry: Repeat for the following compound: CC(C)Nc1ncc(C(=O)Nc2cccc(Cl)c2)cc1Cl
Reply text: N

Inquiry: Repeat for the following compound: O=C(Nc1cccc(F)c1)c1ccc(N2CCCC2)c(C(F)(F)F)c1
Reply text: Y

Inquiry: Repeat for the following compound: CCCNc1ccc(C(=O)Nc2cccc(OC)c2)cc1[N+](=O)[O-]
Reply text: Y

Inquiry: Repeat for the following compound: O=C(Nc1ccccc1)c1ccc(Cl)c(C(F)(F)F)c1
Reply text: N

Inquiry: Repeat for the following compound: COc1cccc(NC(=O)c2ccc(N3CCCCC3)c([N+](=O)[O-])c2)c1
Reply text: Y

Inquiry: Repeat for the following compound: COc1cccc(NC(=O)c2ccc(Br)c([N+](=O)[O-])c2)c1
Reply text: N

Inquiry: Repeat for the following compound: COc1cccc(NC(=O)c2cnc(Cl)c(C(F)(F)F)c2)c1
Reply text: Y

Inquiry: Repeat for the following compound: COc1cccc(NC(=O)c2ccc(N3CCC(C)CC3)c(C(F)(F)F)c2)c1
Reply text: Y

Inquiry: Repeat for the following compound: O=C(Nc1cccc(OC(F)(F)C(F)F)c1)c1ccc(N2CCCC2)c(C(F)(F)F)c1
Reply text: N

Inquiry: Repeat for the following compound: COc1cccc(NC(=O)c2ccc(NC(C)C)c(C(F)(F)F)c2)c1
Reply text: N

Inquiry: Repeat for the following compound: CN1CCN(c2ccc(C(=O)Nc3cccc(Cl)c3)cn2)CC1
Reply text: Y
